# Test system: 521955-158-R2-J5-PDC complex spheroid growth
# Experiment Description: Anticancer human tumor 521955-158-R2-J5-PDC patient-derived pancreatic carcinoma cell line growth inhibition [AhR]
# Particulars: curve of first compound; second compound 10 µM
pIC50: −log10 of the molar value.
Property Name: pIC50

Worked cases, answers included:
Compound	pIC50
O=C(C=Cc1cccc(S(=O)(=O)Nc2ccccc2)c1)NO + CC(CO)NC(=O)c1cc(-c2ccc(Cl)cc2)nn(-c2cnn(C)c2)c1=O	5.34
CC[C@@]1(O)C(=O)OCc2c1cc1n(c2=O)Cc2cc3c(CN(C)C)c(O)ccc3nc2-1 + Cc1cncc(-c2nc(NCCc3c[nH]c4ccccc34)c3ncn(C(C)C)c3n2)c1	< 7.00
Nc1ncn(C2CC(O)C(CO)O2)c(=O)n1 (stereo unspecified) + Cc1cncc(-c2nc(NCCc3c[nH]c4ccccc34)c3ncn(C(C)C)c3n2)c1	< 6.00

Per the records, this compound ( CC(C)c1c(-c2ccccc2)nc2c(C#N)c[nH]n2c1=O + Cc1ccccc1N=Nc1ccc(NC(=O)c2ccnn2C)c(C)c1 ) has pIC50 equal to < 5.00

Per the records, this compound ( COc1cccc2c1C(=O)c1c(O)c3c(c(O)c1C2=O)CC(O)(C(=O)CO)CC3OC1CC(N)C(O)C(C)O1 (stereo unspecified) + Cc1cncc(-c2nc(NCCc3c[nH]c4ccccc34)c3ncn(C(C)C)c3n2)c1 ) has pIC50 equal to 6.97

Per the records, this compound ( O=C(c1cc(Cc2n[nH]c(=O)c3ccccc23)ccc1F)N1CCN(C(=O)C2CC2)CC1 + Cc1cncc(-c2nc(NCCc3c[nH]c4ccccc34)c3ncn(C(C)C)c3n2)c1 ) has pIC50 equal to < 5.00

====

We begin with a simple list: items and their reported viability, T/C.
# System: 521955-158-R2-J5-PDC complex spheroid growth
# Experiment Description: Anticancer human tumor 521955-158-R2-J5-PDC cell line growth inhibition [AhR];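 for viability, T/C: spheroids mix tumor cells with HUVEC endothelium and human MSC stroma; luminescence taken as viability surrogate after a week of drug exposure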
# Particulars: second compound 0.1 µM; first compound 0.03 µM; stronger effect = lower value
Response body: numeric value in %, unit text excluded.

Worked cases, answers included:
Molecule	Unit String	Observed Measurement
O=C(C=Cn1cnc(-c2cc(C(F)(F)F)cc(C(F)(F)F)c2)n1)NNc1cnccn1 + Cc1ccccc1N=Nc1ccc(NC(=O)c2ccnn2C)c(C)c1	%	50.4
CC(C)CC(NC(=O)C(Cc1ccccc1)NC(=O)c1cnccn1)B(O)O (stereo not drawn) + Cc1cncc(-c2nc(NCCc3c[nH]c4ccccc34)c3ncn(C(C)C)c3n2)c1	%	4.93

# next molecule below
Per the records, this molecule ( CCN(c1cc(-c2ccc(CN3CCOCC3)cc2)cc(C(=O)NCc2c(C)cc(C)[nH]c2=O)c1C)C1CCOCC1 + CC(CO)NC(=O)c1cc(-c2ccc(Cl)cc2)nn(-c2cnn(C)c2)c1=O ) has viability, T/C equal to 110

====

# Tested on: 521955-158-R2-J5-PDC complex spheroid growth
# Experiment Description: Anticancer human tumor 521955-158-R2-J5-PDC cell line growth inhibition [AhR];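 for viability, T/C: spheroids mix tumor cells with HUVEC endothelium and human MSC stroma; luminescence taken as viability surrogate after a week of drug exposure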
# Particulars: second compound 1 µM; first compound 0.000316 µM; stronger effect = lower value
Property Name: viability, T/C (%)
Response body: numeric value in %, unit text excluded.

Compound	Unit String	Observed Measurement
CC[C@@]1(O)C(=O)OCc2c1cc1n(c2=O)Cc2cc3c(CN(C)C)c(O)ccc3nc2-1 + Cc1cncc(-c2nc(NCCc3c[nH]c4ccccc34)c3ncn(C(C)C)c3n2)c1	%	117
Cn1ncnc1C1c2n[nH]c(=O)c3cc(F)cc(c23)NC1c1ccc(F)cc1 (stereo unspecified) + CC(CO)NC(=O)c1cc(-c2ccc(Cl)cc2)nn(-c2cnn(C)c2)c1=O	%	103
CC[C@@]1(O)C(=O)OCc2c1cc1n(c2=O)Cc2cc3c(CN(C)C)c(O)ccc3nc2-1 + Cc1ccccc1N=Nc1ccc(NC(=O)c2ccnn2C)c(C)c1	%	98.2
Cn1ncnc1C1c2n[nH]c(=O)c3cc(F)cc(c23)NC1c1ccc(F)cc1 (stereo unspecified) + Cc1cncc(-c2nc(NCCc3c[nH]c4ccccc34)c3ncn(C(C)C)c3n2)c1	%	122
CC[C@@]1(O)C(=O)OCc2c1cc1n(c2=O)Cc2cc3c(CN(C)C)c(O)ccc3nc2-1 + CC(CO)NC(=O)c1cc(-c2ccc(Cl)cc2)nn(-c2cnn(C)c2)c1=O	%	93

# next compound below
Per the records, this compound ( Cn1ncnc1C1c2n[nH]c(=O)c3cc(F)cc(c23)NC1c1ccc(F)cc1 (stereo unspecified) + Cc1ccccc1N=Nc1ccc(NC(=O)c2ccnn2C)c(C)c1 ) has viability, T/C equal to 111

====

# Test system: 521955-158-R2-J5-PDC complex spheroid growth
# Experiment Description: Anticancer human tumor 521955-158-R2-J5-PDC cell line growth inhibition [AhR];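 for viability, T/C: spheroids mix tumor cells with HUVEC endothelium and human MSC stroma; luminescence taken as viability surrogate after a week of drug exposure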
# Particulars: second compound 0.316 µM; first compound 0.00316 µM; stronger effect = lower value
Property Name: viability, T/C (%)
Response body: numeric value in %, unit text excluded.

Worked cases, answers included:
Compound	viability, T/C [%]
CC1COCCN1c1cc(-c2ccnn2C)c2ccnc(-c3ccn[nH]3)c2n1 (stereo unspecified) + CC(CO)NC(=O)c1cc(-c2ccc(Cl)cc2)nn(-c2cnn(C)c2)c1=O	141
CC[C@@]1(O)C(=O)OCc2c1cc1n(c2=O)Cc2cc3c(CN(C)C)c(O)ccc3nc2-1 + Cc1cncc(-c2nc(NCCc3c[nH]c4ccccc34)c3ncn(C(C)C)c3n2)c1	109
Cn1ncnc1C1c2n[nH]c(=O)c3cc(F)cc(c23)NC1c1ccc(F)cc1 (stereo unspecified) + CC(CO)NC(=O)c1cc(-c2ccc(Cl)cc2)nn(-c2cnn(C)c2)c1=O	120
CC[C@@]1(O)C(=O)OCc2c1cc1n(c2=O)Cc2cc3c(CN(C)C)c(O)ccc3nc2-1 + CC(CO)NC(=O)c1cc(-c2ccc(Cl)cc2)nn(-c2cnn(C)c2)c1=O	89.8
CC1COCCN1c1cc(-c2ccnn2C)c2ccnc(-c3ccn[nH]3)c2n1 (stereo unspecified) + Cc1cncc(-c2nc(NCCc3c[nH]c4ccccc34)c3ncn(C(C)C)c3n2)c1	113

# next compound below
Per the records, this compound ( Nc1ncn(C2CC(O)C(CO)O2)c(=O)n1 (stereo unspecified) + CC(CO)NC(=O)c1cc(-c2ccc(Cl)cc2)nn(-c2cnn(C)c2)c1=O ) has viability, T/C equal to 97.2

====

# Test system: 521955-158-R2-J5-PDC complex spheroid growth
# Experiment Description: Anticancer human tumor 521955-158-R2-J5-PDC cell line growth inhibition [AhR];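 for viability, T/C: spheroids mix tumor cells with HUVEC endothelium and human MSC stroma; luminescence taken as viability surrogate after a week of drug exposure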
# Particulars: second compound 0.1 µM; first compound 0.000949 µM; stronger effect = lower value
We begin with a simple list: items and their reported viability, T/C.
Response body: numeric value in %, unit text excluded.

Worked cases, answers included:
Molecule	Observed Measurement
Nc1ncn(C2CC(O)C(CO)S2)c(=O)n1 (centres undefined) + Cc1ccccc1N=Nc1ccc(NC(=O)c2ccnn2C)c(C)c1	125
CCc1c2c(nc3ccc(O)cc13)-c1cc3c(c(=O)n1C2)COC(=O)[C@]3(O)CC + CC(CO)NC(=O)c1cc(-c2ccc(Cl)cc2)nn(-c2cnn(C)c2)c1=O	57.4

Per the records, this molecule ( Nc1ncn(C2CC(O)C(CO)S2)c(=O)n1 (centres undefined) + CC(CO)NC(=O)c1cc(-c2ccc(Cl)cc2)nn(-c2cnn(C)c2)c1=O ) has viability, T/C equal to 79.4

Per the records, this molecule ( Nc1ncn(C2CC(O)C(CO)S2)c(=O)n1 (centres undefined) + Cc1cncc(-c2nc(NCCc3c[nH]c4ccccc34)c3ncn(C(C)C)c3n2)c1 ) has viability, T/C equal to 115

Per the records, this molecule ( CC(C)CC(NC(=O)C(Cc1ccccc1)NC(=O)c1cnccn1)B(O)O (centres undefined) + Cc1cncc(-c2nc(NCCc3c[nH]c4ccccc34)c3ncn(C(C)C)c3n2)c1 ) has viability, T/C equal to 103

Per the records, this molecule ( CC(C)CC(NC(=O)C(Cc1ccccc1)NC(=O)c1cnccn1)B(O)O (centres undefined) + Cc1ccccc1N=Nc1ccc(NC(=O)c2ccnn2C)c(C)c1 ) has viability, T/C equal to 91.3

Per the records, this molecule ( CCc1c2c(nc3ccc(O)cc13)-c1cc3c(c(=O)n1C2)COC(=O)[C@]3(O)CC + Cc1ccccc1N=Nc1ccc(NC(=O)c2ccnn2C)c(C)c1 ) has viability, T/C equal to 65.2

Per the records, this molecule ( CCc1c2c(nc3ccc(O)cc13)-c1cc3c(c(=O)n1C2)COC(=O)[C@]3(O)CC + Cc1cncc(-c2nc(NCCc3c[nH]c4ccccc34)c3ncn(C(C)C)c3n2)c1 ) has viability, T/C equal to 78.5

Per the records, this molecule ( CC(C)CC(NC(=O)C(Cc1ccccc1)NC(=O)c1cnccn1)B(O)O (centres undefined) + CC(CO)NC(=O)c1cc(-c2ccc(Cl)cc2)nn(-c2cnn(C)c2)c1=O ) has viability, T/C equal to 78.8

Data credit: PubChem BioAssay AID1918998
